Items are presented alongside their recorded IC50.
# measured.on: Human ATX (Homo sapiens (Human))
# protocol.notes: Assay A: Biochemical ATX Assay
# assay.setup: recombinant ATX, 18:1 LPC substrate, 18:1 LPA formation; compounds of the invention
Kindly answer with a numeric value in nM, unit omitted.

Study these solved cases before continuing.
# compound, IC50, nM
measured = [
    ("CC(=O)N1CCC(c2ccc(CNc3ccc(OCc4ccccc4)nn3)cc2)CC1 [Example 2.5]", 4),
    ("CC(=O)N1CCN(c2ccc(CNc3ccc(OCc4ccccc4)nn3)cc2)CC1 [Example 2.4]", 3),
]

Consider the record given below.
Please report the recorded IC50 for CC(=O)N1CCN(c2ccc(CNc3ccc(OCc4ccnc(C#N)c4)nn3)cc2)CC1 [Example 1.3] . 5
